Here's a batch of compounds along with measured IC50 for MERS-CoV 3CLpro (Middle East respiratory syndrome-related coronavirus).
Reply numerically in nM, unit not repeated.

Past entries and their recorded results:
• CC[C@@H](C)[C@H](NC(=O)C1CC1(F)F)C(=O)N1C[C@H]2[C@@H]([C@H]1C(=O)NN(C[C@@H]1CCNC1=O)C(=O)[C@H](F)Cl)C2(C)C (mixture of isomers) = 79
• CC(C)(C)[C@H](NC(=O)C(F)(F)F)C(=O)N1C[C@@H]2CC[C@@H]2[C@H]1C(=O)NN(C[C@@H]1CCNC1=O)C(=O)[C@H](F)Cl = 303
• CCC(C)(C)[C@H](NC(=O)C1CC1)C(=O)N1C[C@H]2[C@@H]([C@H]1C(=O)NN(C[C@@H]1CCNC1=O)C(=O)[C@H](F)Cl)C2(C)C = 83
• CC[C@H](C)[C@H](NC(=O)C(F)F)C(=O)N1C[C@H]2[C@@H]([C@H]1C(=O)NN(C[C@@H]1CCNC1=O)C(=O)[C@@H](F)Cl)C2(C)C = 86

API: the following record is the query input.
Field IC50 (entry CC1(C)[C@@H]2[C@@H](C(=O)NN(C[C@@H]3CCNC3=O)C(=O)[C@H](F)Cl)N(C(=O)[C@H](Cc3ccncc3)NC(=O)C(F)(F)F)C[C@@H]21 ) reads 84

* * *

Here's a batch of molecules along with measured pIC50 for MERS-CoV 3CLpro (Middle East respiratory syndrome-related coronavirus, UniProt K9N7C7).
Expect pIC50 as a plain number equal to -log10 of the molar concentration.

Past entries and their recorded results:
- CC(C)(C)[C@H](NC(=O)C1CC1)C(=O)N1C[C@@H]2CCC[C@@H]2[C@H]1C(=O)NN(C[C@@H]1CCNC1=O)C(=O)[C@H](F)Cl: 7.12
- CC(C)(C)[C@H](NC(=O)C(F)(F)F)C(=O)N1C[C@H]2[C@@H]([C@H]1C(=O)NN(C[C@@H]1CCNC1=O)C(=O)CCl)C2(C)C: 6.39

// molecule CCC(C)(C)[C@H](NC(=O)[C@@H]1CC1(F)F)C(=O)N1C[C@@H]2CCC[C@@H]2[C@H]1C(=O)NN(C[C@@H]1CCNC1=O)C(=O)[C@@H](F)Cl , assay MERS-CoV 3CLpro (Middle East respiratory syndrome-related coronavirus, UniProt K9N7C7), pIC50 value: 7.00

* * *

# reported pIC50; entries follow
# subject_of_test: UniProtKB K9N7C7
Expect pIC50 as a plain number equal to -log10 of the molar concentration.

Past entries and their recorded results:
• CC(C)(C)[C@H](NC(=O)[C@@H]1CC1(F)F)C(=O)N1C[C@@H]2CCC[C@@H]2[C@H]1C(=O)NN(C[C@@H]1CCCNC1=O)C(=O)[C@H](F)Cl = 7.05
• CC1(C)[C@@H]2[C@@H](C(=O)NN(C[C@@H]3CCNC3=O)C(=O)[C@H](F)Cl)N(C(=O)[C@@H](NC(=O)C(F)(F)F)c3ccccc3)C[C@@H]21 = 6.96

Field pIC50 (entry CC[C@H](C)[C@H](NC(=O)C1(F)CC1)C(=O)N1C[C@H](C(F)(F)F)C[C@H]1C(=O)NN(C[C@@H]1CCNC1=O)C(=O)[C@@H](F)Cl ) reads 6.47

Field pIC50 (entry O=C1NCC[C@H]1CN(NC(=O)[C@@H]1[C@H]2CCC[C@H]2CN1C(=O)[C@@H](NC(=O)C(F)(F)F)C1CCC1)C(=O)[C@H](F)Cl ) reads 6.45

Field pIC50 (entry CC(C)(C)[C@H](NC(=O)[C@@H]1CC1(F)F)C(=O)N1C[C@@H]2CCC[C@@H]2[C@H]1C(=O)NN(C[C@@H]1CCNC1=O)C(=O)[C@@H](F)Cl ) reads 7.03

* * *

Here's a batch of compounds along with measured pIC50 for MERS-CoV 3CLpro (Middle East respiratory syndrome-related coronavirus).
Expect pIC50 as a plain number equal to -log10 of the molar concentration.

Past entries and their recorded results:
* CC[C@H](C)[C@H](NC(=O)C(F)(F)C(F)(F)F)C(=O)N1C[C@H]2[C@@H]([C@H]1C(=O)NN(C[C@@H]1CCNC1=O)C(=O)[C@H](F)Cl)C2(C)C | 7.37
* CC(C)(C)[C@H](NC(=O)C1CC(F)(F)C1)C(=O)N1C[C@@H]2CCC[C@@H]2[C@H]1C(=O)NN(C[C@@H]1CCNC1=O)C(=O)[C@H](F)Cl | 7.23
* CC[C@H](C)[C@H](NC(C)=O)C(=O)N1C[C@@H]2CCC[C@@H]2[C@H]1C(=O)NN(C[C@@H]1CCNC1=O)C(=O)[C@H](F)Cl | 7.03
* CCC(C)(C)[C@H](NC(=O)[C@@H](C)F)C(=O)N1C[C@H]2[C@@H]([C@H]1C(=O)NN(C[C@@H]1CCNC1=O)C(=O)[C@H](F)Cl)C2(C)C | 6.93
* CC(C)(C)[C@H](NC(=O)[C@H]1CC1(F)F)C(=O)N1C[C@H]2[C@@H]([C@H]1C(=O)NN(C[C@@H]1CCNC1=O)C(=O)[C@@H](F)Cl)C2(C)C | 7.20

// compound CC1(C)[C@@H]2[C@@H](C(=O)NN(C[C@@H]3CCNC3=O)C(=O)[C@H](F)Cl)N(C(=O)/C=C/c3cc(C(F)(F)F)cc(C(F)(F)F)c3)C[C@@H]21 , assay MERS-CoV 3CLpro (Middle East respiratory syndrome-related coronavirus), pIC50 value: 6.18

* * *

Here's a batch of molecules along with measured pIC50 for MERS-CoV 3CLpro (Middle East respiratory syndrome-related coronavirus, UniProt K9N7C7).
Expect pIC50 as a plain number equal to -log10 of the molar concentration.

• CC(C)(C)[C@H](NC(=O)C1(F)CC1)C(=O)N1C[C@@H]2CCC[C@@H]2[C@H]1C(=O)NN(C[C@@H]1CCNC1=O)C(=O)[C@@H](F)Cl = 6.43
• CC(C)(C)[C@H](NC(=O)C1(F)CC1)C(=O)N1C[C@H]2[C@@H]([C@H]1C(=O)NN(C[C@@H]1CCNC1=O)C(=O)[C@@H](F)Cl)C2(C)C = 6.87
• CC(C)C(=O)N[C@H](C(=O)N1C[C@@H]2CCC[C@@H]2[C@H]1C(=O)NN(C[C@@H]1CCNC1=O)C(=O)[C@H](F)Cl)C(C)(C)C = 7.10

// molecule O=C1NCC[C@H]1CN(NC(=O)[C@H]1[C@@H]2CCC[C@@H]2CN1C(=O)COc1cc(F)cc(F)c1)C(=O)[C@H](F)Cl [Example 89b] , assay MERS-CoV 3CLpro (Middle East respiratory syndrome-related coronavirus, UniProt K9N7C7), pIC50 value: 6.71

// molecule CC(C)(C)[C@H](Nc1ncncc1F)C(=O)N1C[C@@H]2CCC[C@@H]2[C@H]1C(=O)NN(C[C@@H]1CCNC1=O)C(=O)[C@H](F)Cl , assay MERS-CoV 3CLpro (Middle East respiratory syndrome-related coronavirus, UniProt K9N7C7), pIC50 value: 6.76

* * *

# subject_of_test: MERS-CoV 3CLpro (Middle East respiratory syndrome-related coronavirus, UniProt K9N7C7)
# Sequence (K9N7C7 3248-3553): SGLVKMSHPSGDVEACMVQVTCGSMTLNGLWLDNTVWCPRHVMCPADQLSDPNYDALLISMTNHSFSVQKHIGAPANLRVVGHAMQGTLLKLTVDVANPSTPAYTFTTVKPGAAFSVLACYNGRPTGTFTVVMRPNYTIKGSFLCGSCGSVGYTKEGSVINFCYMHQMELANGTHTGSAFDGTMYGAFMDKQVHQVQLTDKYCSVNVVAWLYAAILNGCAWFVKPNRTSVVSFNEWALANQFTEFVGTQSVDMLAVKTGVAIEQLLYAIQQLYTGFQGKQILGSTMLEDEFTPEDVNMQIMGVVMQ
# reported IC50; entries follow

Past entries and their recorded results:
- CCC(C)(C)[C@H](NC(=O)C1CC1)C(=O)N1CC(C)(C)C[C@H]1C(=O)NN(C[C@H]1CCCNC1=O)C(=O)[C@H](F)Cl [Example 168b]: 2110 nM
- CCC(CC)[C@H](NC(=O)C1CC1)C(=O)N1C[C@H]2[C@@H]([C@H]1C(=O)NN(C[C@@H]1CCNC1=O)C(=O)[C@H](F)Cl)C2(C)C [Example 129]: 104 nM
- CC(C)(C)[C@H](NC(=O)C(F)(F)F)C(=O)N1C[C@H](C(F)(F)F)C[C@H]1C(=O)NN(C[C@@H]1CCNC1=O)C(=O)[C@H](F)Cl [Example 23]: 65 nM

Field IC50 (entry CCC(CC)[C@H](NC(=O)C(F)F)C(=O)N1CC(C)(C)C[C@H]1C(=O)NN(C[C@@H]1CCNC1=O)C(=O)[C@H](F)Cl [Example 139] ) reads 139 nM

Field IC50 (entry CCC(C)(C)[C@H](NC(=O)C1(F)CC1)C(=O)N1CC(C)(C)C[C@H]1C(=O)NN(C[C@@H]1CCNC1=O)C(=O)[C@H](F)Cl [Example 154] ) reads 305 nM

Field IC50 (entry CC(C)(C)[C@H](NC(=O)C(F)(F)C(F)(F)F)C(=O)N1C[C@@H]2CCC[C@@H]2[C@H]1C(=O)NN(C[C@@H]1CCNC1=O)C(=O)[C@H](F)Cl [Example 71] ) reads 41 nM

* * *

# subject_of_test: UniProt:P0C6X7
# assay_overview: biochemical
# reported IC50; entries follow
Reply numerically in nM, unit not repeated.

Past entries and their recorded results:
• CC[C@@H](C)[C@H](NC(=O)C(F)(F)F)C(=O)N1C[C@H]2[C@@H]([C@H]1C(=O)NN(C[C@@H]1CCNC1=O)C(=O)[C@H](F)Cl)C2(C)C = 12
• CC(C)(C)[C@H](NC(=O)C1(F)CC1)C(=O)N1C[C@@H]2CCC[C@@H]2[C@H]1C(=O)NN(C[C@@H]1CCNC1=O)C(=O)[C@@H](F)Cl = 25
• CC[C@H](C)[C@H](NC(=O)C(F)(F)F)C(=O)N1C[C@H]2[C@@H]([C@H]1C(=O)NN(C[C@H]1CCCNC1=O)C(=O)[C@H](F)Cl)C2(C)C (single isomer, unassigned) [Example 165b] = 36
• CCC(C)(C)[C@H](NC(=O)C1CC1)C(=O)N1C[C@H]2[C@@H]([C@H]1C(=O)NN(C[C@@H]1CCNC1=O)C(=O)[C@@H](F)Cl)C2(C)C = 16

API: the following record is the query input.
Field IC50 (entry CCC(C)(C)[C@H](NC(=O)[C@@H]1CC1(F)F)C(=O)N1C[C@@H]2CCC[C@@H]2[C@H]1C(=O)NN(C[C@@H]1CCNC1=O)C(=O)[C@H](F)Cl ) reads 16
